# System: coxsackie B3 virus
# Test summary: Antiviral CPE assay in mammalian cell culture
# Assay type: cell-based
# Experimental context: Enterovirus B, B3, read-out: inhibition capacity (IC50) B3
Measured IC50 of individual entries

Worked examples, 6 compounds total:
- Structure notation: "COc1ccc(-c2c(C)nn3c(NCc4ccc(NS(C)(=O)=O)cc4)nc(C)nc23)cc1OC"
  IC50: "< 100 nM"
- Structure notation: "COc1ccc(-c2c(C)nn3c(NCc4ccc(NC(C)=O)cc4)nc(C)nc23)cc1OC"
  IC50: "< 100 nM"
- Structure notation: "COc1ccc(-c2c(C)nn3c(NCc4cc[n+]([O-])cc4)nc(C)nc23)cc1OC"
  IC50: "< 1000 nM"
- Structure notation: "COc1ccc(-c2c(C)nn3c(NCc4cnco4)nc(C)nc23)cc1OC"
  IC50: "< 100 nM"
- Structure notation: "COc1ccc(-c2c(C)nn3c(NCc4ccc(C(F)(F)F)cc4)nc(C)nc23)cc1OC"
  IC50: "< 1000 nM"
- Structure notation: "COc1ccc(-c2c(C)nn3c(NCc4ccc(C)cc4)nc(C)nc23)cc1OC"
  IC50: "< 100 nM"

Below: the item to evaluate.
### Prompt Kindly state the measured IC50 obtained for COc1ccc(-c2c(C)nn3c(NCC4CCNCC4)nc(C)nc23)cc1OC with coxsackie B3 virus.
### Response > 1000 nM

###

The following compounds are listed with their measured pIC50 values.
# Test system: coxsackie B5virus
# Test summary: Antiviral CPE assay in mammalian cell culture
# Format: cell-based
# Experimental context: read-out: inhibition capacity (IC50) B5
pIC50: −log10 of the molar value.

// known answers, use as guide
- Compound: "COc1ccc(-c2c(C)nn3c(NCc4ccncc4)nc(C)nc23)cc1OC [Example 6]"
  pIC50: "> 8.00"
- Compound: "COc1ccc(-c2c(C)nn3c(NCc4ccccc4)nc(C)nc23)cc1OC [Example 20]"
  pIC50: "> 7.00"
- Compound: "COc1ccc(-c2c(C)nn3c(NCc4cccnc4)nc(C)nc23)cc1OC [Example 22]"
  pIC50: "> 7.00"
- Compound: "COc1ccc(-c2c(C)nn3c(NCc4ccc(F)cc4)nc(C)nc23)cc1OC [Example 1]"
  pIC50: "> 7.00"

Moving on to the next compound.
### Prompt Would you kindly share the measured pIC50 for COc1ccc(-c2c(C)nn3c(NCc4ccc(NC(C)=O)cc4)nc(C)nc23)cc1OC [Example 9] ?
### Response > 7.00

###

What follows is a collection of pIC50 values obtained with PI4KIIIβ (Homo sapiens).
Sequence (Q9UBF8 whole entry): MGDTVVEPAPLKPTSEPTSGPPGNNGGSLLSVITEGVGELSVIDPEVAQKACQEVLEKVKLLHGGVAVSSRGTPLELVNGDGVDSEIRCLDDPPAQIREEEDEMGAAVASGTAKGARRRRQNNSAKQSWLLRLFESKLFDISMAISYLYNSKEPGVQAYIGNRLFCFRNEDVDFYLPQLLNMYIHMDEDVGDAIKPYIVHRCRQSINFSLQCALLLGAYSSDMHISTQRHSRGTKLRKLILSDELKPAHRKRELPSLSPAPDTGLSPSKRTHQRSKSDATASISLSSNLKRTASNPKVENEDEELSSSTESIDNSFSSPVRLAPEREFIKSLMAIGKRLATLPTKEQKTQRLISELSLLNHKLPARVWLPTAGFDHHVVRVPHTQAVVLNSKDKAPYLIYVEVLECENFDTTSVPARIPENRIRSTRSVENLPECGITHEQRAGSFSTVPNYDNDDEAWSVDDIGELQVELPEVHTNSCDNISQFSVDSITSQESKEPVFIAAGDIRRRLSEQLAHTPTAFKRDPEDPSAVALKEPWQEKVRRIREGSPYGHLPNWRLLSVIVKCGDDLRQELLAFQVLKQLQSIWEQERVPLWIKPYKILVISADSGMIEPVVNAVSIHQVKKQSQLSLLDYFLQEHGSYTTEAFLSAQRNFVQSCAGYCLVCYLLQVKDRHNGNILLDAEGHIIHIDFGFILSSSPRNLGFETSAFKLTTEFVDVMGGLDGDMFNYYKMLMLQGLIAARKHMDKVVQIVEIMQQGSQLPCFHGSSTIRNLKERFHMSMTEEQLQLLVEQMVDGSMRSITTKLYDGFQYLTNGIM
Keep it numeric: pIC50 is minus log10 of the concentration in mol/L.

- Structure notation: "COc1ccc(-c2c(C)nn3c(NCc4ccc(S(N)(=O)=O)cc4)nc(C)nc23)cc1OC"
  Property name: "pIC50"
  Measured number: 8.68

### Prompt Query (compound): COc1ccc(-c2c(C)nn3c(NCc4ccncc4)nc(C)nc23)cc1OC ; field requested: pIC50
### Response 8.89

###

# Target system: PI3Kβ (Homo sapiens, UniProt P42338)
# Sequence (P42338 whole entry, species assumed): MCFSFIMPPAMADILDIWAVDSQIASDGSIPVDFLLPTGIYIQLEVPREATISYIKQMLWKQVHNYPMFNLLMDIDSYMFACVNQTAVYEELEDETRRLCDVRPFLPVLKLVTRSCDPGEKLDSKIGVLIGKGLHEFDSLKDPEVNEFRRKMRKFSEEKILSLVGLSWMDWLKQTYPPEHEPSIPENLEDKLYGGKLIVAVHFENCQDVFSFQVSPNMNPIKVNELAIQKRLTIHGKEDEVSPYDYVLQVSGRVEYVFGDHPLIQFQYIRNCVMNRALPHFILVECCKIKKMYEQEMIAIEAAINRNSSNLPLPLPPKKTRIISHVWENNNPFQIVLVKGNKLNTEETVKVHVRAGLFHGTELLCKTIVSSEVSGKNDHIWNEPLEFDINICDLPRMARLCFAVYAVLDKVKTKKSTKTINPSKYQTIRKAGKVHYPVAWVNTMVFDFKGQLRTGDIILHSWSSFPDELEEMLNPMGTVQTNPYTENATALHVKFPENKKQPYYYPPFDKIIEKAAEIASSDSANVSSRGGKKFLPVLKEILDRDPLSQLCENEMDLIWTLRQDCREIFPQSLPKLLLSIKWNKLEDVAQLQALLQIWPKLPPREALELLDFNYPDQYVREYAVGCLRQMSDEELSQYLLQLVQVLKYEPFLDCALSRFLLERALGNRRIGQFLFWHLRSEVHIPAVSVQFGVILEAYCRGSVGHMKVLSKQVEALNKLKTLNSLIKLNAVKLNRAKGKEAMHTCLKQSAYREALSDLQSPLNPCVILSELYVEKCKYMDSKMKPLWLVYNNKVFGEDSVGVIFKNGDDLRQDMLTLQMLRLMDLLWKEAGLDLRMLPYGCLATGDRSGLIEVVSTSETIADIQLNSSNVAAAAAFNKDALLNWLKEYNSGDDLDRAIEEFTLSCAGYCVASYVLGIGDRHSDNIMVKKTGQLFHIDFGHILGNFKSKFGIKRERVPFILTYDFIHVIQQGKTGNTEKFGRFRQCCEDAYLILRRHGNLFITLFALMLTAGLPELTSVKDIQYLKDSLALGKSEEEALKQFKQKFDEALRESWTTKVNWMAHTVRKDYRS
# Sequence (P27986 whole entry partner, species assumed): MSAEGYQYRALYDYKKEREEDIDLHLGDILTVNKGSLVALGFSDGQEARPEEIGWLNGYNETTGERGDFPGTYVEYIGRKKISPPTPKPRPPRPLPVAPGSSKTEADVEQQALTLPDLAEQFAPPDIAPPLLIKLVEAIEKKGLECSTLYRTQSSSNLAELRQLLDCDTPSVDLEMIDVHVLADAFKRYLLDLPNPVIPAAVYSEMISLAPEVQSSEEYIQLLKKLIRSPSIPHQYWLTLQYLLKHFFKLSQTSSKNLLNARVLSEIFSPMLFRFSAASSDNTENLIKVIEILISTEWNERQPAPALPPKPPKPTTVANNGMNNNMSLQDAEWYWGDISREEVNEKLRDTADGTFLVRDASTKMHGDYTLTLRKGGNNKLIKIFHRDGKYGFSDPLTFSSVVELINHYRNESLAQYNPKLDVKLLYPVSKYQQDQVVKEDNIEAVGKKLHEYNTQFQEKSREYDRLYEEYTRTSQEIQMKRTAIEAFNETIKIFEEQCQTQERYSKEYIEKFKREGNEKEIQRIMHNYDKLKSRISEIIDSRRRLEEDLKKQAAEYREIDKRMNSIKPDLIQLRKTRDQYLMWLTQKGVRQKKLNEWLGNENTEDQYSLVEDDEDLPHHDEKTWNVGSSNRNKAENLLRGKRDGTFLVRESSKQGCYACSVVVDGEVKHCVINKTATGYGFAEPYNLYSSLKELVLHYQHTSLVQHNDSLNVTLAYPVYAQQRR
# Test summary: Phosphatidyl inositol kinase inhibition assay (HTRF)
# Assay type: biochemical
Property: IC50; scope: individual compounds

- Structure notation: "COc1ccc(-c2c(C)nn3c(NCc4ccncc4)nc(C)nc23)cc1OC"
  Result: "> 10 µM"

Continue with the compound presented below.
### Prompt What does the record list as IC50 for COc1ccc(-c2c(C)nn3c(NCc4ccc(S(N)(=O)=O)cc4)nc(C)nc23)cc1OC ?
### Response > 10 µM

###

# Tested on: coxsackie B5virus
# Test summary: Antiviral CPE assay in mammalian cell culture
# Type: cell-based
# Experimental context: read-out: inhibition capacity (IC50) B5
pIC50: −log10 of the molar value.
Property name: pIC50

Some molecules with recorded pIC50:
- Structure notation: "COc1ccc(-c2c(C)nn3c(NCc4cccs4)nc(C)nc23)cc1OC"
  pIC50: "> 7.00"
- Structure notation: "COc1ccc(-c2c(C)nn3c(NCc4ccc(NS(C)(=O)=O)cc4)nc(C)nc23)cc1OC"
  pIC50: "> 6.00"
- Structure notation: "COc1ccc(-c2c(C)nn3c(NCc4ccccn4)nc(C)nc23)cc1OC"
  pIC50: "> 6.00"
- Structure notation: "COc1ccc(-c2c(C)nn3c(NCc4cc[n+]([O-])cc4)nc(C)nc23)cc1OC"
  pIC50: "> 6.00"
- Structure notation: "COc1ccc(-c2c(C)nn3c(NCc4ccc(C(F)(F)F)cc4)nc(C)nc23)cc1OC"
  pIC50: "> 7.00"
- Structure notation: "COc1ccc(-c2c(C)nn3c(NCc4cnc(C)nc4)nc(C)nc23)cc1OC"
  pIC50: "> 6.00"

### Prompt Consider the molecule COc1ccc(-c2c(C)nn3c(NCc4ccc(O)cc4)nc(C)nc23)cc1OC and give its measured pIC50.
### Response > 8.00

### Prompt For the molecule COC(=O)NS(=O)(=O)c1ccc(CNc2nc(C)nc3c(-c4ccc(OC)c(OC)c4)c(C)nn23)cc1 , what pIC50 is on record?
### Response < 6.00

###

# Test system: coxsackie B3 virus
# Test summary: Antiviral CPE assay in mammalian cell culture
# Type: cell-based
# Experimental context: Enterovirus B, B3, read-out: inhibition capacity (IC50) B3
Property name: IC50

Consider the following illustrative entries.
- Compound: "COc1ccc(-c2c(C)nn3c(NCc4cccs4)nc(C)nc23)cc1OC [Example 21]"
  IC50: "< 100 nM"
- Compound: "COc1ccc(-c2c(C)nn3c(NCc4ccn(C)n4)nc(C)nc23)cc1OC [Example 27]"
  IC50: "< 100 nM"
- Compound: "COc1ccc(-c2c(C)nn3c(NCC4CCCCC4)nc(C)nc23)cc1OC [Example 15]"
  IC50: "< 1000 nM"

### Prompt # lookup: IC50 of COc1ccc(-c2c(C)nn3c(NCc4ccncc4)nc(C)nc23)cc1OC [Example 6]
### Response < 10 nM

### Prompt Suppose we examine the compound COc1ccc(-c2c(C)nn3c(NCCc4ccc(Cl)cc4)nc(C)nc23)cc1OC [Example 7] ; what IC50 value has been reported?
### Response < 1000 nM

### Prompt Dear colleague, I am looking for the recorded IC50 of the following compound: COc1ccc(-c2c(C)nn3c(NCc4ccc(C(C)C)cc4)nc(C)nc23)cc1OC [Example 4]
### Response < 1000 nM

### Prompt Name the reported IC50 value associated with the compound COC(=O)NS(=O)(=O)c1ccc(CNc2nc(C)nc3c(-c4ccc(OC)c(OC)c4)c(C)nn23)cc1 [Example 24]
### Response > 1000 nM

### Prompt Requested read-out: IC50. Entry: COc1ccc(-c2c(C)nn3c(NCC4CCCO4)nc(C)nc23)cc1OC (centres unmarked) [Example 18]
### Response < 1000 nM

###

# Tested on: coxsackie B2 virus
# Test summary: Antiviral CPE assay in mammalian cell culture
# Type: cell-based
# Experimental context: read-out: inhibition capacity (IC50) B2
Property name: IC50

Worked cases, answers included:
- Compound: "COc1ccc(-c2c(C)nn3c(NCc4ccc(C)o4)nc(C)nc23)cc1OC"
  IC50: "< 100 nM"
- Compound: "COc1ccc(-c2c(C)nn3c(NCc4ccncc4)nc(C)nc23)cc1OC"
  IC50: "< 10 nM"
- Compound: "COc1ccc(-c2c(C)nn3c(NCc4cccs4)nc(C)nc23)cc1OC"
  IC50: "< 10 nM"
- Compound: "COc1ccc(-c2c(C)nn3c(NCc4ccc(O)cc4)nc(C)nc23)cc1OC"
  IC50: "< 10 nM"

### Prompt Quick check: IC50 on coxsackie B2 virus, item COc1ccc(-c2c(C)nn3c(NCc4ccc(F)cc4)nc(C)nc23)cc1OC ?
### Response < 10 nM

###

The following molecules are listed with their measured IC50 values.
# System: coxsackie B3 virus
# Test summary: Antiviral CPE assay in mammalian cell culture
# Type: cell-based
# Experimental context: Enterovirus B, B3, read-out: inhibition capacity (IC50) B3

- Structure notation: "COc1ccc(-c2c(C)nn3c(NCc4cccc(S(C)(=O)=O)c4)nc(C)nc23)cc1OC"
  Result: "< 10 nM"

### Prompt Which IC50 value belongs to COc1ccc(-c2c(C)nn3c(NCc4ccc(C)o4)nc(C)nc23)cc1OC ?
### Response < 100 nM

### Prompt Please give the measured IC50 for this molecule: COc1ccc(-c2c(C)nn3c(NCc4ccccn4)nc(C)nc23)cc1OC
### Response < 1000 nM

### Prompt Consider the molecule CNS(=O)(=O)c1ccc(CNc2nc(C)nc3c(-c4ccc(OC)c(OC)c4)c(C)nn23)cc1 and give its measured IC50.
### Response < 1000 nM

### Prompt Which IC50 value is on record for COc1ccc(-c2c(C)nn3c(NCc4ccc(F)cc4)nc(C)nc23)cc1OC ?
### Response < 1000 nM

### Prompt Could you share which IC50 value was measured for COc1ccc(-c2c(C)nn3c(NCc4ccc5c(c4)OCO5)nc(C)nc23)cc1OC ?
### Response < 100 nM

### Prompt Form field: reported IC50 of COc1ccc(-c2c(C)nn3c(NCc4ccc(O)cc4)nc(C)nc23)cc1OC
### Response < 100 nM

### Prompt Need IC50, item COc1ccc(-c2c(C)nn3c(NCc4cnc(C)nc4)nc(C)nc23)cc1OC
### Response < 1000 nM
